test system: L. tropica (MHOM/AF/2015/HTD7); assay: Leishmania clinical isolate panel screen (drug-susceptibility assay in infected macrophages); format: cell-based; details: Macrophage, read-out: IC50 Mean ± SEM
readout type: pIC50
Numbers only, as −log10 of the molar value.

Exercise: If you can, please state the reported pIC50 value of "Cc1[nH]c2nc(N)nc(C)c2c1-c1ccc(C#N)c2c1OCO2" .
Solution: 6.52

====

Give pIC50 for every item shown.
tested on: L. donovani (MHOM/ NP/2003/BPK282/0-cl4); assay: Leishmania clinical isolate panel screen (drug-susceptibility assay in infected macrophages); assay type: cell-based; conditions: Macrophage, Visceral leishmaniasis, L. donovani (MHOM/ NP/2003/BPK282/0-cl4), Miltefosine: mean only, read-out: IC50 Mean ± SEM
Answers are plain numbers, as −log10 of the molar value.

1) COc1cc(C#N)ccc1-c1c(C)[nH]c2nc(N)nc(C)c12 [Compound C1] ... 7.00

Could you now look at the following compound, please?
Exercise: Param readout= pIC50; system= L. donovani (MHOM/ NP/2003/BPK282/0-cl4); entry= COc1nc(OCC(F)(F)F)cnc1-c1c(C)[nH]c2nc(N)nc(C)c12 [Compound C3] ; returns value.
Solution: 6.49
